assay: Cmax in rat at 10 mg/kg, po; assay type: ADME, organism-based; parameters: dose 10 mg/kg, route oral; conditions: in vivo
Cmax values by entry
Numbers only; they are read as ng/mL.

Solved entries (count: 6):
CCCSc1nc(N[C@@H]2C[C@H]2c2ccc(F)c(F)c2)c2nnn([C@@H]3C[C@H](OCCO)[C@@H](O)[C@H]3O)c2n1 [TICAGRELOR]	267
CCCSc1nc(N[C@@H]2C[C@H]2c2ccc(F)c(F)c2)c2nnn([C@@H]3C[C@H](F)[C@@H](O)[C@H]3O)c2n1	195
CCCSc1nc(N[C@@H]2C[C@H]2c2ccc(F)c(F)c2)c2nnn([C@@H]3C[C@H](OCC(O)CO)[C@@H](O)[C@H]3O)c2n1 (mixture of isomers)	3.89
CCCSc1nc(N[C@@H]2C[C@H]2c2ccc(F)c(F)c2)c2nnn(C3[C@H](O)[C@H](O)[C@@H](O)[C@H]3O)c2n1 (some centres not stated)	55.4
CCCSc1nc(N[C@@H]2C[C@H]2c2ccc(Cl)s2)c2nnn([C@@H]3C[C@H](OCCO)[C@@H](O)[C@H]3O)c2n1	28.7
CCCSc1nc(N[C@@H]2C[C@H]2c2ccc(F)c(F)c2)c2nnn([C@H]3[C@H](O)[C@H](O)[C@@H](O)[C@H]3F)c2n1	303

Here is another compound to look at.
Quick one: Cmax of CCCSc1nc(N[C@@H]2C[C@H]2c2ccc(F)c(F)c2)c2nnn([C@H]3[C@H](O)[C@H](O)[C@@H](OCCO)[C@H]3F)c2n1 ?
127
